Items are presented alongside their recorded pEC50.
# tested on: Mu-type opioid receptor (Homo sapiens)
# Sequence (P35372 whole entry): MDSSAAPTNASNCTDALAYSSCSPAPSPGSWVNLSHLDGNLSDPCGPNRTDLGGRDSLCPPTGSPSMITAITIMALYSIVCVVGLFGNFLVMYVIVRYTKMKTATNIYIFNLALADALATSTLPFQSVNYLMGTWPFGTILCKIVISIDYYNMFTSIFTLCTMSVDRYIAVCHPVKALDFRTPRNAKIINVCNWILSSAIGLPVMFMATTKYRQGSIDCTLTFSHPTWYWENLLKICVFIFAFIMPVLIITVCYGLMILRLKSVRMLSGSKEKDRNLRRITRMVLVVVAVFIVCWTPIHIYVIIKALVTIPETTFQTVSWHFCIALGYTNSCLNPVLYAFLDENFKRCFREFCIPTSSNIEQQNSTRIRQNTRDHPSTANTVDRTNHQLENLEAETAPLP
# procedure text: Agonist activity at human mu opioid receptor expressed in CHO cells assessed as stimulation of calcium mobilization by Fluo-4 AM dye based analysis
Where a SMILES comes first, the peptide text is derived from it. [ ]: non-standard residue; d: D form. Phe(4-NH2) = Nc1ccc(C[C@H](N)C(=O)O)cc1; 1Nal = N[C@@H](Cc1cccc2ccccc12)C(=O)O; Dmt = Cc1cc(O)cc(C)c1C[C@H](N)C(=O)O
Conceptually, pEC50 converts a concentration in mol/L into minus its log10.

compound: Cc1cc(O)cc(C)c1C[C@H](N)C(=O)NCC(=O)NCC(=O)N[C@@H](Cc1ccccc1)C(=O)N[C@@H](Cc1ccc(N)cc1)C(=O)NCC(=O)N[C@@H](C)C(=O)N[C@@H](CCCNC(=N)N)C(=O)N[C@@H](CCCCN)C(=O)N[C@@H](CO)C(=O)N[C@@H](C)C(=O)N[C@@H](CCCNC(=N)N)C(=O)N[C@@H](CCCCN)C(N)=O (H-[Dmt]GGF[Phe(4-NH2)]GARKSARK-NH2)
value reported: 7.82
//
compound: Cc1cc(O)cc(C)c1C[C@H](N)C(=O)NCC(=O)NCC(=O)N[C@@H](Cc1ccccc1)C(=O)N[C@@H](Cc1cccc2ccccc12)C(=O)NCC(=O)N[C@@H](C)C(=O)N[C@@H](CCCNC(=N)N)C(=O)N[C@@H](CCCCN)C(=O)N[C@@H](CO)C(=O)N[C@@H](C)C(=O)N[C@@H](CCCNC(=N)N)C(=O)N[C@@H](CCCCN)C(N)=O (H-[Dmt]GGF[1Nal]GARKSARK-NH2)
value reported: 7.80

Query string: Find the measured pEC50 of Cc1cc(O)cc(C)c1C[C@H](NC(=O)[C@H](Cc1ccccc1)NC(=O)CNC(=O)CNC(=O)[C@@H](N)Cc1c(C)cc(O)cc1C)C(=O)NCC(=O)N[C@@H](C)C(=O)N[C@@H](CCCNC(=N)N)C(=O)N[C@@H](CCCCN)C(=O)N[C@@H](CO)C(=O)N[C@@H](C)C(=O)N[C@@H](CCCNC(=N)N)C(=O)N[C@@H](CCCCN)C(N)=O (H-[Dmt]GGF[Dmt]GARKSARK-NH2) and report it.
Result string: 8.08

----------
# tested on: Mu-type opioid receptor (Homo sapiens)
# procedure text: Agonist activity at human mu opioid receptor expressed in CHO cells assessed as stimulation of calcium mobilization by measuring concentration relative curve at 10 uM by Fluo-4 AM dye based analysis
# Format: functional, cell-based
Activity calls are given as the source filed them. No cut-off for these calls is given here.
outcome measure: pEC50

Example results:
substance: H-YGGFKGARKSARK-NH2
pEC50: inactive

substance: H-YGGFTGARKSARK-NH2
pEC50: inactive

substance: H-YGGFWGARKSARK-NH2
pEC50: inactive

substance: H-YGGFK(Ac)GARKSARK-NH2
pEC50: inactive

Query string: Find the measured pEC50 of H-YGGFVGARKSARK-NH2 and report it.
Result string: inactive

Query string: Find the measured pEC50 of H-YGGFNGARKSARK-NH2 and report it.
Result string: inactive

Query string: Find the measured pEC50 of H-YGGFHGARKSARK-NH2 and report it.
Result string: inactive
